System: 786-0 renal
Assay: NCI-60 one-dose screen, 48 h (100 = growth as untreated, 0 = no growth, -100 = all killed)
Settings: 10 µM unless noted
About 83,000 compounds went through this panel and 20% of them were active in at least one assay; those are over-represented in the sample as a whole.
Value type: growth (%)
Express the result in % but write the number alone.

Input line: Any idea what its growth is? The compound is `O=C(C(=O)N1CCCC1)c1cn(CCCn2cc(C(=O)C(=O)N3CCCC3)c3cc(Br)ccc32)c2ccc(Br)cc12`
Output line: 71.4

Input line: Any idea what its growth is? The compound is `CN(C)c1nc(-c2ccco2)n2nc(-c3ccc(Cl)cc3)cc2n1`
Output line: 43.4

Input line: Any idea what its growth is? The compound is `CSc1ccc(/C=C2\C=C(CC(=O)NCc3ccc(C(=O)c4ccccc4)cc3)c3cc(F)ccc32)cc1`
Output line: -25.7

Input line: Any idea what its growth is? The compound is `O=c1c2cc(Br)cc(Br)c2nc(-c2ccc(Cl)cc2)n1/N=C\c1ccccc1F`
Output line: -34

Input line: Any idea what its growth is? The compound is `COc1ccc(-c2ccc(-c3ccc(C(=N)N)s3)s2)cc1`
Output line: -64.4

Input line: Any idea what its growth is? The compound is COc1cc(C2CC(=O)Nc3c2cnn3C)cc(OC)c1OC (centres undefined)
Output line: 103

Input line: Any idea what its growth is? The compound is `C=C(C)[C@@H]1CC[C@]2(C(=O)NC(COC(=O)C(Cl)Cl)(COC(=O)C(Cl)Cl)COC(=O)C(Cl)Cl)CC[C@]3(C)[C@H](CC[C@@H]4[C@@]5(C)CC[C@H](OC(C)=O)C(C)(C)[C@@H]5CC[C@]43C)[C@@H]12`
Output line: 37.3

Input line: Any idea what its growth is? The compound is `CCCCCCCC/C=C\CCCCCCCC(=O)OCCCCCC`
Output line: 105

Input line: Any idea what its growth is? The compound is `CC(C)c1ccc(-c2cnc3nonc3n2)cc1`
Output line: 10.6

###

Tested on: KM12 colon
Test: NCI-60 one-dose screen, 48 h
Conditions: 10 µM unless noted
The panel holds about 83,000 compounds, 20% with a hit somewhere; the sample as a whole holds those more often. Activity calls are given as the source filed them. The calls were made as follows: active = growth percent below 10; inactive = the rest.
The reply should be one of these categories: true for active, false for inactive

Input line: Short answer needed: outcome of this test for `C[C@H](NC(=O)c1snnc1C1CC1)c1c(F)cccc1Cl` ?
Output line: false

Input line: Short answer needed: outcome of this test for `Fc1ccc(-c2nc(-c3ccc(-c4nc5ccc(F)cc5[nH]4)cc3)no2)cc1` ?
Output line: false

Input line: Short answer needed: outcome of this test for `CCN(CCC#N)c1ccccc1` ?
Output line: false

Input line: Short answer needed: outcome of this test for CCOC(=O)C1=C(C(=O)OCC)N(c2cc(OC)c(OC)c(OC)c2)C(N)=C(C#N)C1c1cc(=O)[nH]c2ccccc12 (stereo not given) ?
Output line: false

Input line: Short answer needed: outcome of this test for `CC(C)CCSc1nc(-c2ccc(F)cc2)c(C#N)c(N2CCCCC2)n1` ?
Output line: false

Input line: Short answer needed: outcome of this test for `O=P(O)(O)C(O)(Cc1cccnc1)P(=O)(O)O` ?
Output line: false

Input line: Short answer needed: outcome of this test for `Cc1nn(-c2cccc(Cl)c2)c(C)c1N=Nc1ccc(Br)cc1` ?
Output line: false

Input line: Short answer needed: outcome of this test for COc1cc(CN(CCC(O)N2CCCC2=O)Cc2ccc3c(c2)OCO3)cc(OC)c1OC (stereo not given) ?
Output line: false

Input line: Short answer needed: outcome of this test for `CC(C)[C@@]12C[C@@H](OC(=O)[C@H]3CO3)[C@@](C)(O1)[C@@H]1CC[C@@H](C)[C@H]1[C@@H]2OC(=O)/C=C/c1ccccc1` ?
Output line: false

Input line: Short answer needed: outcome of this test for `COc1ccc(NC(=O)c2sc3c(=O)[nH]c(C(F)(F)F)nc3c2C)cc1` ?
Output line: false

Input line: Short answer needed: outcome of this test for CC(C)c1ccc2c(c1)CCC1C2CCCC1(C)NCc1ccccc1 (stereo not given) ?
Output line: false

Input line: Short answer needed: outcome of this test for `CCOC(=O)Nc1ccc2nc(N3CCCCCC3)sc2c1` ?
Output line: false

Input line: Short answer needed: outcome of this test for `COC1(OC)C2(Cl)CCC1(Cl)C(Cl)=C2Cl` ?
Output line: false

Input line: Short answer needed: outcome of this test for COc1ccc(CC2c3cc(OC)c(OC)cc3CC[N+]2(C)CCC(=O)OCCCCCOC(=O)CC[N+]2(C)CCc3cc(OC)c(OC)cc3C2Cc2ccc(OC)c(OC)c2)cc1OC (stereo not given) ?
Output line: false

Input line: Short answer needed: outcome of this test for `Clc1ccc(-c2nc(-c3cccs3)no2)cc1` ?
Output line: false

Input line: Short answer needed: outcome of this test for `C=C1C(=O)O[C@H]2[C@H]1CC/C(COC(=O)N[C@@H](Cc1c[nH]c3ccccc13)C(=O)OC)=C\CC[C@@]1(C)O[C@@H]21` ?
Output line: false

Input line: Short answer needed: outcome of this test for `COc1ccc2nc(-c3ccc(-c4noc(-c5ccc(Cl)cc5)n4)cc3)[nH]c2c1` ?
Output line: false

Input line: Short answer needed: outcome of this test for O=C1N(Cc2ccccc2Cl)c2ccccc2C12NN=C(c1ccccc1)S2 (stereo not given) ?
Output line: false

Input line: Short answer needed: outcome of this test for `Fc1cc(-c2cnc3nonc3n2)c(Cl)cc1Cl` ?
Output line: false

Input line: Short answer needed: outcome of this test for `CC(=O)Oc1ccccc1C(=O)Nc1ncc([N+](=O)[O-])s1` ?
Output line: false

Input line: Short answer needed: outcome of this test for `CCCCCCCCCCCCCCCCCC(=O)OCCCCCCCCCCCCC` ?
Output line: false

Input line: Short answer needed: outcome of this test for `C#Cc1cccc(Nc2nc3cc([N+](=O)[O-])ccc3nc2Nc2ccc(O)cc2)c1` ?
Output line: true

Input line: Short answer needed: outcome of this test for `C#CCNc1nc(NCCNC(=O)CCl)nc(N(C)CCCCc2ccccc2)n1` ?
Output line: false

Input line: Short answer needed: outcome of this test for `CCOCCNc1ccc(S(=O)(=O)c2ccc(N)cc2)cc1N` ?
Output line: false

Input line: Short answer needed: outcome of this test for OC(CCCCCCCCC(O)CN1CCc2ccccc2C1)CN1CCc2ccccc2C1 (stereo not given) ?
Output line: false

Input line: Short answer needed: outcome of this test for `Clc1cc(Cl)cc(-c2cnc3nonc3n2)c1` ?
Output line: false

Input line: Short answer needed: outcome of this test for `COc1ccc(/C=C/c2nc3ccccc3c(=O)n2-c2ccc(C#Cc3ccc(C(C)(C)C)cc3)cc2C)c(OC)c1` ?
Output line: false

Input line: Short answer needed: outcome of this test for `COc1ccc(-n2nc(C(=O)Nc3ccc(F)cc3)nc2-c2cc(OC)c(OC)c(OC)c2)cc1` ?
Output line: false

Input line: Short answer needed: outcome of this test for CCOC(=O)C1=C(C)NC(=S)NC1c1ccccc1 (stereo not given) ?
Output line: false

Input line: Short answer needed: outcome of this test for O=C1/C(=C/N2N=C(c3ccc(Cl)cc3)CC2c2ccccc2O)SC(=S)N1c1cccc(C(F)(F)F)c1 (stereo not given) ?
Output line: false

Input line: Short answer needed: outcome of this test for `O=C(Nc1cccc(N=Cc2c(O)ccc3ccccc23)c1)c1ccccc1` ?
Output line: false

Input line: Short answer needed: outcome of this test for `CCN(CC)CCNC(=O)n1cc(-c2ccncc2)c(-c2ccc(Cl)c(OC)c2)n1` ?
Output line: false

Input line: Short answer needed: outcome of this test for CN1C(=O)N(C)C2C1NN=c1s/c(=C\c3ccsc3)c(=O)n12 (stereo not given) ?
Output line: false

Input line: Short answer needed: outcome of this test for COc1cc(C2C(C#N)=C(N)Oc3cc4c(cc32)OCO4)cc2c1OCO2 (stereo not given) ?
Output line: false

Input line: Short answer needed: outcome of this test for `CC(C)c1ccc(-c2cnc3nonc3n2)cc1` ?
Output line: false

Input line: Short answer needed: outcome of this test for C=CCN1C(=O)/C(=c2\sc3n(c2=O)C2C(NN=3)N(CC)C(=O)N2CC)c2ccccc21 (stereo not given) ?
Output line: false

Input line: Short answer needed: outcome of this test for O=C(CSc1nnc(Cc2ccccc2Nc2c(Cl)cccc2Cl)n1-c1ccccc1)N1N=C(c2ccc3ccccc3c2)CC1c1ccc(Cl)cc1 (stereo not given) ?
Output line: false

Input line: Short answer needed: outcome of this test for CC[C@]1(O)C[C@H]2CN(CCc3c([nH]c4ccccc34)C(C(=O)OC)(c3cc4c(cc3OC)N(C)[C@H]3[C@@](O)(C(=O)OC)[C@H](OC(C)=O)[C@]5(CC)[C@@H]6C[C@@H]6CN6CC[C@]43[C@@H]65)C2)C1 (stereo not given in full) ?
Output line: false

Input line: Short answer needed: outcome of this test for `COc1cc([N+](=O)[O-])cc(OC)c1OC` ?
Output line: false

Input line: Short answer needed: outcome of this test for Cc1ccccc1C1CC(=O)c2ccccc2C1C (stereo not given) ?
Output line: false
